The binders listed here are annotated with their Kd.
- experimentalTarget: T1, LRP1 CR3-5 (human)
- T1 construct: range 852-973; Amplified from human cDNA; also called L1 CR3-5
- T1 sequence (Q07954 852-973): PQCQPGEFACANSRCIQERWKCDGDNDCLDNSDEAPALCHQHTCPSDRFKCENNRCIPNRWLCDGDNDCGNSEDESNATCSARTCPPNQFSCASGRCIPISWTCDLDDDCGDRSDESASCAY
- assayText: solid-phase assay, coated CR protein, anti-RAP, OD450
Answer format: numeric, nM implied, no suffix.

Inquiry: Consider the binder RAP d3 E217K (ligand, forward mutant of wild-type RAP d3; also called RAP E217K; not shown: vector-encoded N-terminal tags of pET30(+)a) LDRLRRVSHQGYSTEAKFEEPRVIDLWDLEQSANLTDKELEAFREELKHFEAKIEKHNHYQKQLEIAHEKLRHAESVGDGERVSRSREKHALLEGRTKELGYTVKKHLQDLSGRISRAR and give its measured Kd.
Reply text: 9

Inquiry: Name the recorded Kd for RAP d3 H249Y (ligand, forward mutant of wild-type RAP d3; also called RAP H249Y; not shown: vector-encoded N-terminal tags of pET30(+)a) LDRLRRVSHQGYSTEAEFEEPRVIDLWDLEQSANLTDKELEAFREELKYFEAKIEKHNHYQKQLEIAHEKLRHAESVGDGERVSRSREKHALLEGRTKELGYTVKKHLQDLSGRISRAR .
Reply text: 28

Inquiry: Fill blank: measured Kd of the binder wild-type RAP d3 (ligand, expressed in E. coli from pET30(+)a; not shown: vector-encoded N-terminal tags of pET30(+)a (hexahistidine and S-peptide, as stated for the CR constructs)) LDRLRRVSHQGYSTEAEFEEPRVIDLWDLEQSANLTDKELEAFREELKHFEAKIEKHNHYQKQLEIAHEKLRHAESVGDGERVSRSREKHALLEGRTKELGYTVKKHLQDLSGRISRAR is ____.
Reply text: 16

Inquiry: Bench note: what Kd did RAP d3 E251K (ligand, forward mutant of wild-type RAP d3; also called RAP E251K; not shown: vector-encoded N-terminal tags of pET30(+)a) LDRLRRVSHQGYSTEAEFEEPRVIDLWDLEQSANLTDKELEAFREELKHFKAKIEKHNHYQKQLEIAHEKLRHAESVGDGERVSRSREKHALLEGRTKELGYTVKKHLQDLSGRISRAR show?
Reply text: 7
